Exercise: state measured pEC50 for each of the compounds provided.
- study_target: hD2LR (human dopamine D2 receptor, long splice variant) (Homo sapiens, UniProt P14416)
- Construct: full-length long isoform, stably expressed in Flp-In HEK293 cells (G protein BRET assay); C351I G alpha subunits co-transfected as sensors; hD2LR-NLuc fusion with GRK2-Venus in the GRK2 recruitment assay (SCH23390 row)
- protocol_summary: BRET G protein (GαoA) activation, Gβγ-Venus / masGRK3ct-NLuc release
Interpret pEC50 as the negative base-10 log of the concentration measured in mol/L.

Entry CC(C)C[C@H]1C(=O)N2CCC[C@H]2[C@]2(O)O[C@](NC(=O)[C@@H]3C=C4c5cccc6[nH]c(Br)c(c56)C[C@H]4N(C)C3)(C(C)C)C(=O)N12 [Bromocriptine] : reported pEC50 = ?
7.84

Entry CCCN(CCC)CCc1cccc2c1CC(=O)N2 [Ropinirole] : reported pEC50 = ?
8.55

Entry C=CCN1C[C@H](C(=O)N(CCCN(C)C)C(=O)NCC)C[C@@H]2c3cccc4[nH]cc(c34)C[C@H]21 [Cabergoline] : reported pEC50 = ?
8.80

Entry Oc1c(CN2CCN(c3ccccn3)CC2)cc(Cl)c2cccnc12 [MLS1547] : reported pEC50 = ?
6.68

Entry CCN(CC)C(=O)N[C@H]1C[C@@H]2c3cccc4[nH]cc(c34)C[C@H]2N(C)C1 [Terguride] : reported pEC50 = ?
8.36

Entry Clc1cccc(C2CCN(CCCOc3ccc4scnc4c3)CC2)c1Cl [UNC9994] : reported pEC50 = ?
6.55
